- System: A. niger sulfhydryl oxidase
- procedureText: Polarographic O2 depletion assay of sulfhydryl oxidase with thiol compounds and substrates of other oxidases
- Assay type: biochemical, Aspergillus niger
- measurementSetup: purified enzyme, polarographic assay, double reciprocal plot
Listing: kcat (app) of selected molecules
Please give a number only; it is taken to be in s⁻¹.

{"molecule": "O[C@H](CS)[C@H](O)CS (racemic) [Dithiothreitol]", "kcat (app) (s⁻¹)": 119}
{"molecule": "N[C@@H](CCC(=O)N[C@@H](CS)C(=O)NCC(=O)O)C(=O)O [Glutathione]", "kcat (app) (s⁻¹)": 131.2}
{"molecule": "N[C@@H](CS)C(=O)O [Cysteine]", "kcat (app) (s⁻¹)": 166.2}

Now for a further molecule.
Exam item: So what does the record say about kcat (app) for OCCS [2-Mercaptoethanol] ?
Marked response: 145.2

----------
- System: A. niger sulfhydryl oxidase
- procedureText: Polarographic O2 depletion assay of sulfhydryl oxidase with thiol compounds and substrates of other oxidases
- Format: biochemical, Aspergillus niger
- measurementSetup: purified enzyme, polarographic assay
valueType: kcat (app)/Km (app) (head is drawing 1) (min^-1 M^- 1)
Please give a number only; it is taken to be in min^-1 M^- 1.

{"compound": "OCCS", "kcat (app)/Km (app) (head is drawing 1), min^-1 M^- 1": 26}

Exam item: So what does the record say about kcat (app)/Km (app) (head is drawing 1) for "N[C@@H](CS)C(=O)O" ?
Marked response: 230

Exam item: So what does the record say about kcat (app)/Km (app) (head is drawing 1) for O[C@H](CS)[C@H](O)CS (racemic) ?
Marked response: 110

----------
- targetEntity: A. niger sulfhydryl oxidase
- procedureText: Spectral titration with sodium sulfite (flavin-sulfite complex)
- Assay type: binding, Aspergillus niger
- measurementSetup: from spectrum 1 of FIG. 3, pH 6, 50 mM sodium phosphate; read-out: Dissociation constant Kd of flavin-sulfite complex
valueType: pKd
Friendly reminder that pKd comes from taking -log10 of the concentration in mol/L.

Exam item: So what does the record say about pKd for O=S([O-])[O-].[Na+].[Na+] [sodium sulfite] ?
Marked response: 2.52
